- study_system: AchR (Homo sapiens, UniProt P02708)
- Sequence (P02708 21-457): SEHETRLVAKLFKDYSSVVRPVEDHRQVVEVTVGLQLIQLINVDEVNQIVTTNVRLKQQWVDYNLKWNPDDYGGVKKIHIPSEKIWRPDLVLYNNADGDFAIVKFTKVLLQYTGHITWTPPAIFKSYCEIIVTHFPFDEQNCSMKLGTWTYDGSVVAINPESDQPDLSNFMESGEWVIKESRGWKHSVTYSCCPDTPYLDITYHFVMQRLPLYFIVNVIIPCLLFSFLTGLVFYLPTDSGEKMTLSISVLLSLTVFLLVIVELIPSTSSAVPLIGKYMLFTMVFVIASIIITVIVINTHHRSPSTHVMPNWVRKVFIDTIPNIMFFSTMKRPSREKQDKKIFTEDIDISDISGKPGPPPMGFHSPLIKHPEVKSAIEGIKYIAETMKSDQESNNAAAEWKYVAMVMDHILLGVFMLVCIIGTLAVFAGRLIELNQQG
- protocol: ELISA of screened peptide phages on AchR versus streptavidin (OD450)
- Assay type: binding
- condition_parameters: phage ELISA, absorbance at 450 nm, 5 μg/ml AchR; 4th and 5th round biopanning phages
# if measured OD < 0.5: true  # else: false

Ask: Decide: OD of KMRKFYSK [Peptide L1-189] strictly below 0.5?
Result: false

Ask: Decide: OD of RQKKDNQK [Peptide L1-26] strictly below 0.5?
Result: false

Ask: Decide: OD of KEKRLYAR [Peptide L1-149] strictly below 0.5?
Result: true

Ask: Decide: OD of KFRKGPYR [Peptide L1-135] strictly below 0.5?
Result: true

Ask: Decide: OD of KPRRPDTR [Peptide L1-109] strictly below 0.5?
Result: false

---

- study_system: AchR (Homo sapiens)
- protocol: ELISA of screened peptide phages on AchR versus streptavidin (OD450)
- Format: binding
- condition_parameters: ELISA of selected 14-mer (L3) peptide phages on AchR, absorbance at 450 nm; Spep-2 positive control
Exercise: for every item that follows, state its recorded OD.
Kindly provide the number alone.

// field: OD; key: L3-45 (PGNRMKKYQNRVHG; AchR binding peptide) [Peptide L3-45] ; value = 0.735

// field: OD; key: L3-101 (QPWRQKKFWCRCWG; AchR binding peptide) [Peptide L3-101] ; value = 0.758

// field: OD; key: L3-70 (DHERERRLWSRFPF; AchR binding peptide) [Peptide L3-70] ; value = 0.781

// field: OD; key: L3-34 (LGWKKRKSLLRRHV; AchR binding peptide) [Peptide L3-34] ; value = 0.74

// field: OD; key: L3-46 (SAHKKRKQTLRCSE; AchR binding peptide) [Peptide L3-46] ; value = 0.618

// field: OD; key: L3-61 (THDKCKKHNDKQAH; AchR binding peptide) [Peptide L3-61] ; value = 0.768

// field: OD; key: L3-162 (ANWRTRRDLAKEHV; AchR binding peptide) [Peptide L3-162] ; value = 0.781

// field: OD; key: L3-108 (ESYRLRRGTDKEQW; AchR binding peptide) [Peptide L3-108] ; value = 0.621

// field: OD; key: L3-18 (EYQKCKKPSFRLTM; AchR binding peptide) [Peptide L3-18] ; value = 0.806

---

- study_system: AchR (Homo sapiens)
- protocol: ELISA of screened peptide phages on AchR versus streptavidin (OD450)
- Format: binding
- condition_parameters: phage ELISA, absorbance at 450 nm, 5 μg/ml AchR; 4th and 5th round biopanning phages
# if measured OD < 0.5: T  # else: F

Ask: Decide: OD of RIKRNNCK [Peptide L1-130] strictly below 0.5?
Result: T

Ask: Decide: OD of KTRKQDHR [Peptide L1-172] strictly below 0.5?
Result: F

Ask: Decide: OD of REKKQEVK [Peptide L1-150] strictly below 0.5?
Result: T

Ask: Decide: OD of RIRRGSVR [Peptide L1-57] strictly below 0.5?
Result: T

Ask: Decide: OD of KQKRQWAR [Peptide L1-191] strictly below 0.5?
Result: F

Ask: Decide: OD of KTKRGSLK [Peptide L1-101] strictly below 0.5?
Result: F

Ask: Decide: OD of RNRKIPLK [Peptide L1-44] strictly below 0.5?
Result: F

Ask: Decide: OD of KNKKCVGR [Peptide L1-88] strictly below 0.5?
Result: F

Ask: Decide: OD of RGRRGTMR [Peptide L1-93] strictly below 0.5?
Result: F

Ask: Decide: OD of RGKKQLSK [Peptide L1-121] strictly below 0.5?
Result: T

Ask: Decide: OD of RMKKFHTR [Peptide L1-128] strictly below 0.5?
Result: T

Ask: Decide: OD of KPRKIQGR [Peptide L1-137] strictly below 0.5?
Result: T

Ask: Decide: OD of GGRKKRRQRRR [Peptide L2-203, reference compound] strictly below 0.5?
Result: T

Ask: Decide: OD of RIRRVSQR [Peptide L1-60] strictly below 0.5?
Result: T

Ask: Decide: OD of RTKKENVK [Peptide L1-180] strictly below 0.5?
Result: F

Ask: Decide: OD of RFKRMVWR [Peptide L1-99] strictly below 0.5?
Result: F

Ask: Decide: OD of KWRRELPR [Peptide L1-182] strictly below 0.5?
Result: F

Ask: Decide: OD of RPRRTHIK [Peptide L1-6] strictly below 0.5?
Result: F

Ask: Decide: OD of RARKLHNR [Peptide L1-103] strictly below 0.5?
Result: F

Ask: Decide: OD of KVRKSLWK [Peptide L1-52] strictly below 0.5?
Result: F

Ask: Decide: OD of RIRKITWR [Peptide L1-194] strictly below 0.5?
Result: F

Ask: Decide: OD of KMRKGWDK [Peptide L1-138] strictly below 0.5?
Result: T

Ask: Decide: OD of RAKRMCCK [Peptide L1-8] strictly below 0.5?
Result: F

Ask: Decide: OD of KYKREEYR [Peptide L1-161] strictly below 0.5?
Result: T

Ask: Decide: OD of RHKRWSGR [Peptide L1-153] strictly below 0.5?
Result: F

Ask: Decide: OD of KARRQEDK [Peptide L1-14] strictly below 0.5?
Result: F

Ask: Decide: OD of KIKRDLYK [Peptide L1-90] strictly below 0.5?
Result: T

Ask: Decide: OD of RGRKPIWK [Peptide L1-108] strictly below 0.5?
Result: F

Ask: Decide: OD of RQKKDFLK [Peptide L1-107] strictly below 0.5?
Result: F

Ask: Decide: OD of KTKKAAER [Peptide L1-178] strictly below 0.5?
Result: F

---

- study_system: AchR (Homo sapiens)
- protocol: ELISA of screened peptide phages on AchR versus streptavidin (OD450)
- Format: binding
- condition_parameters: ELISA of selected 11-mer (L2) peptide phages on AchR, absorbance at 450 nm; Spep-2 positive control
Respond with rule met for OD values of 0.7 and above, rule not met for values below.

Ask: Entry L2-125 (PADKGRREVMK; AchR binding peptide) [Peptide L2-125] : is its OD no less than 0.7?
Result: rule not met

Ask: Entry L2-91 (PIDKFKRGMVR; AchR binding peptide) [Peptide L2-91] : is its OD no less than 0.7?
Result: rule not met

Ask: Entry L2-93 (FNPKMRKVCLR; AchR binding peptide) [Peptide L2-93] : is its OD no less than 0.7?
Result: rule not met

Ask: Entry L2-13 (GGLKSKRLTTR; AchR binding peptide) [Peptide L2-13] : is its OD no less than 0.7?
Result: rule met

Ask: Entry L2-57 (LEHKERKDDFR; AchR binding peptide) [Peptide L2-57] : is its OD no less than 0.7?
Result: rule met

Ask: Entry L2-144 (PYTRCRKEICK; AchR binding peptide) [Peptide L2-144] : is its OD no less than 0.7?
Result: rule not met

Ask: Entry L2-150 (EDVRVKRQTCR; AchR binding peptide) [Peptide L2-150] : is its OD no less than 0.7?
Result: rule not met

Ask: Entry L2-18 (LQSRSKKYSVK; AchR binding peptide) [Peptide L2-18] : is its OD no less than 0.7?
Result: rule met

Ask: Entry L2-92 (FVGRWKREYAK; AchR binding peptide) [Peptide L2-92] : is its OD no less than 0.7?
Result: rule not met

Ask: Entry L2-11 (GIPKYRRGCSR; AchR binding peptide) [Peptide L2-11] : is its OD no less than 0.7?
Result: rule met

Ask: Entry L2-49 (YPFKAKRPAEK; AchR binding peptide) [Peptide L2-49] : is its OD no less than 0.7?
Result: rule met

Ask: Entry L2-42 (YYAKSKKYMVR; AchR binding peptide) [Peptide L2-42] : is its OD no less than 0.7?
Result: rule not met

Ask: Entry L2-141 (SSHKGKRAQSK; AchR binding peptide) [Peptide L2-141] : is its OD no less than 0.7?
Result: rule not met

Ask: Entry L2-131 (MTLKHRRVYIK; AchR binding peptide) [Peptide L2-131] : is its OD no less than 0.7?
Result: rule not met

Ask: Entry L2-130 (GYDRARKGTLR; AchR binding peptide) [Peptide L2-130] : is its OD no less than 0.7?
Result: rule not met

---

Exercise: for every item that follows, state its recorded OD.
- study_system: AchR (Homo sapiens)
- protocol: ELISA of screened peptide phages on AchR versus streptavidin (OD450)
- Format: binding
- condition_parameters: ELISA of selected 14-mer (L3) peptide phages on AchR, absorbance at 450 nm; Spep-2 positive control
Kindly provide the number alone.

// field: OD; key: L3-170 (CIFKFKKNMFKGYS; AchR binding peptide) [Peptide L3-170] ; value = 0.768

// field: OD; key: L3-77 (VLIKQRKWQDRSCS; AchR binding peptide) [Peptide L3-77] ; value = 0.688

// field: OD; key: L3-190 (VHHKLRRVHLRLDV; AchR binding peptide) [Peptide L3-190] ; value = 0.792

// field: OD; key: L3-171 (LDTKNRRGASKWDY; AchR binding peptide) [Peptide L3-171] ; value = 0.629

// field: OD; key: L3-142 (LQCKYRRGSDKTVV; AchR binding peptide) [Peptide L3-142] ; value = 0.502
